All figures here come from paper PMC4958397.

Reported zone of inhibition at 100 µg/disc values for the following compounds.
Test system: Streptococcus mutans PCM 2502
Assay: Disk diffusion, zone of bacterial growth inhibition
Format: cell-based
Conditions: Streptococcus mutans, PCM2502, 100 μg of compound, read-out: Zone of bacterial growth inhibition, S.m
Answer format: numeric, mm implied, no suffix.

compound	zone of inhibition at 100 µg/disc [mm]
CSc1ccc(NC(=S)NNC(=O)c2cccnc2)cc1 [Compound 6]	11
CSc1ccc(NC(=S)NNC(=O)c2ccncc2)cc1 [Compound 8]	0

Looking up CCOc1ccc2nc3cc(N)ccc3c(N)c2c1 [Ethacridine lactate, ethacridine lactate, reference compound] , I found its zone of inhibition at 100 µg/disc recorded as 24

Quick note, zone of inhibition at 100 µg/disc for O=C(NNC(=S)Nc1ccccc1Cl)c1ccccn1 [Compound 2] landed at 24

Lookup result for O=C(NNC(=S)Nc1ccc(Cl)cc1Cl)c1cccnc1 [Compound 7] ; measured zone of inhibition at 100 µg/disc: 24

====

System: HepG2 (human hepatocellular carcinoma)
Assay: Cell proliferation MTT assay
Assay type: cell-based
Settings: Homo sapiens, HepG2; 96 h, MTT; same value in µM; read-out: IC50, antiproliferative activity, HepG2
measurement_type: IC50 (µM)
Please give a number only; it is taken to be in µM.

Memo: `O=C(NNC(=S)Nc1ccc(Cl)cc1Cl)c1ccccn1` , reported IC50: 6.12

====

Tested on: MCF-7 (human breast adenocarcinoma)
Assay: Cell proliferation MTT assay
Assay type: cell-based
Settings: MCF7, 96 h, same value in µM, read-out: IC50, antiproliferative activity, MCF-7
measurement_type: IC50 (µM)
Value expressed in µM; do not type the unit.

So for O=C(NNC(=S)Nc1ccc(Cl)cc1Cl)c1ccccn1 [Compound 4] , the logged IC50 turned out to be 25.3

====

Tested on: Lactobacillus acidophilus PCM 210
Experiment: Disk diffusion, zone of bacterial growth inhibition
Type: cell-based
Conditions: Lactobacillus acidophilus, PCM210, 100 μg of compound, read-out: Zone of bacterial growth inhibition, L.a
zone of inhibition at 100 µg/disc by entry:
A number alone suffices; assume mm.

compound	zone of inhibition at 100 µg/disc (mm)
[H]/N=C(\N/C(=N/[H])NCCCCCCNC(=N)NC(=N)Nc1ccc(Cl)cc1)Nc1ccc(Cl)cc1 [CLX, chlorhexidine digluconate, reference compound]	24
CCOc1ccc2nc3cc(N)ccc3c(N)c2c1 [Ethacridine lactate, ethacridine lactate, reference compound]	15
CSc1ccc(NC(=S)NNC(=O)c2cccnc2)cc1	0
O=C(NNC(=S)Nc1ccccc1Cl)c1ccccn1	16
CSc1ccc(NC(=S)NNC(=O)c2ccncc2)cc1	0
O=C(NNC(=S)Nc1ccccc1F)c1ccncc1	0
O=C(NNC(=S)Nc1ccc(Cl)cc1Cl)c1ccncc1	0
O=C(NNC(=S)NCCN1CCOCC1)c1ccccn1	0
CSc1ccc(NC(=S)NNC(=O)c2ccccn2)cc1	19
O=C(NNC(=S)Nc1ccccc1F)c1ccccn1	12

Lab note: measured zone of inhibition at 100 µg/disc of `O=C(NNC(=S)Nc1ccc(Cl)cc1Cl)c1ccccn1` was 20

The value of zone of inhibition at 100 µg/disc measured for the compound `O=C(NNC(=S)Nc1ccc(Cl)cc1Cl)c1cccnc1` turned out to be 5

====

Test system: Escherichia coli ATCC 25922
Test: Disk diffusion, zone of bacterial growth inhibition
Type: cell-based
Settings: Escherichia coli, ATCC25922, 100 μg of compound, read-out: Zone of bacterial growth inhibition, E.c
Cut-off 10 mm on zone of inhibition at 100 µg/disc, inclusive. At or above means yes; below means no.

Past entries and their recorded results:
compound	assigned_label
O=C(NNC(=S)Nc1ccccc1Cl)c1ccccn1	yes
O=C(NNC(=S)Nc1ccc(Cl)cc1Cl)c1ccncc1	no

Ask | Record [H]/N=C(\N/C(=N/[H])NCCCCCCNC(=N)NC(=N)Nc1ccc(Cl)cc1)Nc1ccc(Cl)cc1 [CLX, chlorhexidine digluconate, reference compound] ; criterion: zone of inhibition at 100 µg/disc no lower than 10 mm. Met?
Reply | yes
